- System: citrated mouse or human plasma
- procedure.summary: In vitro coagulation assay on A20 cells
- Format: cell-based
- assay.conditions: localized on A20 cells via B21-2/10H10
assay.metric: concentration at which plasma coagulated in 50 seconds (pM)
Give your result in pM as a bare value.

molecule	recorded.result
H6-tTF220-cys-C′: tTF219 mutated to encode Ile-Cys after amino acid 219, (His)6 tag (protein) HHHHHHAMALVPRGSGTTNTVAAYNLTWKSTNFKTILEWEPKPVNQVYTVQISTKSGDWKSKCFYTTDTECDLTDEIVKDVKQTYLARVFSYPAGNVESTGSAGEPLYENSPEFTPYLETNLGQPTIQSFEQVGTKVNVTVEDERTLVRRNNTFLSLRDVFGKDLIYTLYYWKSSSSGKKTAKTNTNEFLIDVDKGENYCFSVQAVIPSRTVNRKSTDSPVECMGQEKGEFRE	500

Next molecule, please.
Query: Report concentration at which plasma coagulated in 50 seconds for tTF221-cys-C′: tTF with Ile-Phe-Cys after amino acid 219, without (His)6 tag (protein) GSGTTNTVAAYNLTWKSTNFKTILEWEPKPVNQVYTVQISTKSGDWKSKCFYTTDTECDLTDEIVKDVKQTYLARVFSYPAGNVESTGSAGEPLYENSPEFTPYLETNLGQPTIQSFEQVGTKVNVTVEDERTLVRRNNTFLSLRDVFGKDLIYTLYYWKSSSSGKKTAKTNTNEFLIDVDKGENYCFSVQAVIPSRTVNRKSTDSPVECMGQEKGEFREIFC please.
Response: 500
